- assay details: gradient 5% acetonitrile 3 min, to 50% in 2 min, to 85% in 15 min, held 3 min, 100 µL/min
- details: column: Zorbax Extend-C18 2.1 x 50 mm; eluents: water / acetonitrile, 0.1% formic acid
property: RP-LC retention time (s)
// return numeric value only (unit: s, not printed)

Report measured RP-LC retention time; entry is CN(CC1CCOC1)C(=O)c1cc(Cl)ccc1F (stereo not given)
719

Report measured RP-LC retention time; entry is CCOc1ccc(CCNC(=O)c2snc(C(=O)NCc3ccccc3)c2N)cc1OCC
1090

Report measured RP-LC retention time; entry is COc1cc(C(=O)NC(C)C(=O)Nc2nc3ccccc3[nH]2)cc(OC)c1OC (stereo not given)
767

Report measured RP-LC retention time; entry is c1ccc2c(c1)-c1cccc3cncc-2c13
897

Report measured RP-LC retention time; entry is O=C(COc1ccc(Cl)cc1)Nc1ccc2c(c1)N(C(=O)c1ccco1)CCC2
948

Report measured RP-LC retention time; entry is CCOc1ccc2nc(Nc3nc(C)c4c(n3)CCCC4)nc(C)c2c1
573

Report measured RP-LC retention time; entry is CCN1CCN(Cc2ccc(C(=O)NCc3cc(F)cc(F)c3)cc2)C(=O)C1=O
682

Report measured RP-LC retention time; entry is COc1ccc(S(=O)(=O)N2CC(F)(F)C[C@H]2c2nc(C)no2)cc1
851

Report measured RP-LC retention time; entry is CC(C)(C)C(=O)N1CCCC1COc1ccc(C(=O)N2CCCC2)cc1 (stereo not given)
647

Report measured RP-LC retention time; entry is Cc1c(C(=O)O)nnn1Cc1cccc(C(F)(F)F)c1
744

Report measured RP-LC retention time; entry is COc1ncccc1C(=O)N1CCC(C(=O)Nc2nccs2)CC1
605

Report measured RP-LC retention time; entry is CCOC(=O)C1=C(C)NC2=C(C(=O)c3ccccc32)C1c1ccc(OCC)cc1 (stereo not given)
718

Report measured RP-LC retention time; entry is CCN1C(=O)c2cccnc2Sc2cc(NC(=O)c3ccsc3)ccc21
796

Report measured RP-LC retention time; entry is CCn1ccc(C(=O)N2CC(c3nc(C4CC4)nn3C)C2)n1
610

Report measured RP-LC retention time; entry is CCC(CC)c1nnc(NC(=O)C2CC(=O)N(CCc3c[nH]c4ccc(C)cc34)C2)s1 (stereo not given)
856

Report measured RP-LC retention time; entry is CCOc1ccc(Br)cc1S(=O)(=O)Nc1ccc(-c2cn3ccc(C)nc3n2)cc1
724

Report measured RP-LC retention time; entry is Cc1ccc(-c2ncccc2CNS(=O)(=O)Cc2ccccc2F)cc1
693

Report measured RP-LC retention time; entry is CC1CCCCN1S(=O)(=O)c1ccc2c(c1)CCC(=O)N2CC(=O)NCc1ccccc1 (stereo not given)
876

Report measured RP-LC retention time; entry is CCc1ccc(C(O)CN2CCN(c3ccccc3)CC2)cc1 (stereo not given)
692

Report measured RP-LC retention time; entry is Cc1ncoc1C(=O)N1CCC(c2noc(-c3ccncc3)n2)C1 (stereo not given)
642
